assay: Selectivity index, ratio of CC50 for cytotoxicity against human HePAD38 cells to EC50 for antiviral activity against Hepatitis B virus infected in human HePAD38 cells; format: toxicity, cell-based; conditions: read-out: Ratio CC50/EC50
Use true (1) when the recorded selectivity ratio is no lower than 40; use false (0) when it is lower.

COMPOUND: CCOC(=O)C1=C(CN2CCOCC2)NC(c2nccs2)=N[C@H]1c1ccc(C)cc1Br
GROUP: true (1)
--
COMPOUND: C=CCNC(=S)Nc1cc(C(=O)Nc2ccc(F)c(C)c2)c(C)cc1F
GROUP: true (1)
--
COMPOUND: C=C1[C@H](CO)[C@@H](O)C[C@@H]1n1cnc2c(=O)[nH]c(N)nc21 [ENTECAVIR ANHYDROUS]
GROUP: true (1)
--
COMPOUND: Cc1cc(NC(=O)c2cc(S(=O)(=O)N[C@H]3CCOC3)c(F)cc2Br)ccc1F
GROUP: true (1)
--
COMPOUND: Cc1cc(NC(=O)c2cc(NC(=O)C3CC3)c(F)cc2Br)ccc1F
GROUP: true (1)
--
COMPOUND: Cc1cc(NC(=O)c2cc(NC(=S)NCc3ccc(B(O)O)cc3)c(F)cc2C)ccc1F
GROUP: true (1)
--
COMPOUND: Cc1cc(NC(=O)c2cc(NC(=O)NCc3cc(F)cc(F)c3)c(F)cc2Br)ccc1F
GROUP: false (0)

Then this compound:
Exercise: Could you verify whether the entry Cc1cc(NC(=O)c2cc(NC(=O)NCc3cc(F)c(F)c(F)c3)c(F)cc2Br)ccc1F shows selectivity ratio of no less than 40?
Key: false (0)
